Target: Dihydropteroate synthase (Escherichia coli K-12, UniProt P0AC13)
Sequence (P0AC13 whole entry): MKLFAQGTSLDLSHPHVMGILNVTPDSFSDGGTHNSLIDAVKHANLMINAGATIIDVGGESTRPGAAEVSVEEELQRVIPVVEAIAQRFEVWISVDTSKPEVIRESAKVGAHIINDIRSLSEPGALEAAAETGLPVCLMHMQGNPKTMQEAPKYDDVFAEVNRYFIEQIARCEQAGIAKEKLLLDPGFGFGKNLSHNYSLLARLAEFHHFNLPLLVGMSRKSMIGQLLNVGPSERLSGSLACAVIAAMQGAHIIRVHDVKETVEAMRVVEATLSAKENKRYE
Assay: In vitro concentration required to inhibit partially purified dihydropteroate synthase of Escherichia coli by 50%
Conditions: read-out: I50
pIC50: −log10 of the molar value.
Property Measured: pIC50

Here are 2 compounds together with their reported answers.
Compound Structure | Property Measured | Measured
Nc1nc(O)c(N=O)c(NCCCOc2ccc(Cl)cc2)n1 | pIC50 | 6.00
CCCCOc1ccc(OCCCNc2nc(N)nc(O)c2N=O)cc1 | pIC50 | 5.68

a: Nc1nc(O)c(N=O)c(NCCCOc2ccc(O)cc2)n1
b: Nc1nc(O)c(N=O)c(NCCCOc2ccc([N+](=O)[O-])cc2)n1
Hi there, can you help? I need to know whether a or b has lower measured pIC50. Refer to your chosen entry by its label in the reply.
a
(a: 5.66, b: 6.00)

---

Target: Dihydropteroate synthase (Escherichia coli K-12, UniProt P0AC13)
Test: In vitro concentration required to inhibit partially purified dihydropteroate synthase of Escherichia coli by 50%
Assay type: functional
Conditions: read-out: I50
Property Measured: IC50 (µM)

Here are 4 compounds together with their reported answers.
Compound Structure | Target Or System | Measured
COc1ccc(OCCCNc2nc(N)nc(O)c2N=O)cc1 | Dihydropteroate synthase (Escherichia coli K-12, UniProt P0AC13) | 7.3
Cc1ccc(S(=O)(=O)Nc2ccc(OCCCNc3nc(N)nc(O)c3N=O)cc2)cc1 | Dihydropteroate synthase (Escherichia coli K-12, UniProt P0AC13) | 0.6
Nc1nc(O)c(N=O)c(NCCCCNc2ccc(C(=O)O)cc2)n1 | Dihydropteroate synthase (Escherichia coli K-12, UniProt P0AC13) | 2.5
COc1cc(OC)cc(OCCCNc2nc(N)nc(O)c2N=O)c1 | Dihydropteroate synthase (Escherichia coli K-12, UniProt P0AC13) | 0.7

P: CCOC(=O)c1ccc(NCCCCNc2nc(N)nc(O)c2N=O)cc1
Q: Nc1nc(O)c(N=O)c(NCCCOc2ccccc2OCc2ccccc2)n1
R: Nc1nc(O)c(N=O)c(NCCCNc2ccc(C(=O)O)cc2)n1
S: COc1cc(OCCCNc2nc(N)nc(O)c2N=O)cc(OC)c1OC
T: Nc1nc(O)c(N=O)c(NCCCOc2ccc(C(F)(F)F)cc2)n1
Sequence the entries by IC50, beginning with the highest number. Write the labels, ordered according to the request.
Q, R, P, S, T

a: Nc1nc(O)c(N=O)c(NCCCOc2ccc(OCc3ccccc3)cc2)n1
b: Nc1nc(NCCCOc2ccc(C(=O)O)cc2)c(N=O)c(=O)[nH]1
Hi there, can you help? I need to know whether a or b has lower measured IC50. Refer to your chosen entry by its label in the reply.
a

---

Biological target: Dihydropteroate synthase (Escherichia coli K-12)
Assay: In vitro concentration required to inhibit partially purified dihydropteroate synthase of Escherichia coli by 50%
Details: read-out: I50
Property Measured: IC50 (nM)

Compound Structure | Target Or System | Measured
CS(=O)(=O)c1ccc(OCCCNc2nc(N)nc(O)c2N=O)cc1 | Dihydropteroate synthase (Escherichia coli K-12) | 2500

1: Nc1nc(O)c(N=O)c(NCCCOc2cc(Cl)cc(Cl)c2)n1
2: CCOC(=O)c1ccc(OCCCNc2nc(N)nc(O)c2N=O)cc1
Pick the one with the larger IC50: 1 vs 2 Refer to your chosen entry by its label in the reply.
2
(2: 2900 nM, 1: 1400 nM)
